Assay: Apparent permeability across human Caco2 cells after 2 hrs by LC-MS method
Type: ADME, cell-based
Settings: Caco-2
Measured parameter: Papp at 2 h (×10⁻⁶ cm/s)

Use the examples below as a reference point.
COc1cc(CN(C)C(C)c2ccc3c(c2)CCO3)ccc1OCCN1C(=O)CCC1=O (centres undefined) = 5.62
COc1cc(CN(Cc2ccc(/C=C/C(=O)O)cc2)C(C)c2ccc3c(c2)CCO3)ccc1OCCN1C(=O)CCC1=O (centres undefined) = 1.34

P: COc1cc(CN(C[C@H]2CC[C@H](C(=O)O)CC2)[C@H]2CCc3cc(Cl)ccc32)ccc1OCCN1C(=O)CCC1=O
Q: Cc1cc(CN(C[C@H]2CC[C@H](C(=O)O)CC2)[C@@H](C)c2ccc(Cl)cc2)ccc1OCCN1C(=O)CCC1=O
Which gives the smaller Papp at 2 h number: P or Q ? Use the label to indicate which entry you chose.
P
